Below: a set of entries, each annotated with reported pEC50.
TARGET_SYSTEM: GLP-1R (Homo sapiens)
Construct: host or cells: GLP-1R CRE-bla CHO-K1 cells
ASSAY_PROTOCOL: EC20 GLP-1(9-36) PAM cAMP assay: dose response of compound in the presence of fixed concentration of GLP-1(9-36)
Format: cell-based
EXPERIMENTAL_PARAMETERS: dose response of compound in presence of fixed concentration of GLP-1(9-36), GLP-1R CRE-bla CHO-K1 cells, read-out: EC20 GLP-1(9-36) PAM EC50
pEC50: −log10 of the molar value.
PROPERTY_MEASURED: pEC50

COMPOUND | EXPERIMENTAL_RESULT
CCCCCCCOc1ccc(-c2cnc(-c3ccc(C[C@H](NC(=O)c4ccc(O)c(F)c4)C(=O)N4CC[C@H](C(=O)O)C4)cc3)nc2)cc1 [Compound 1096] | 5.60 to 6.10
CCCCCCCOc1ccc(-c2cnc(-c3ccc(C[C@H](NC(=O)c4ccc(C(C)(C)C)cc4)C(=O)NC(CC(=O)O)C4CCOCC4)cc3)nc2)cc1 (stereo partly drawn) [Compound 551] | > 6.10
CC[C@H]1CC[C@H](c2ccc(-c3cnc(-c4ccc(C[C@H](NC(=O)c5ccc(C(C)(C)C)s5)C(=O)N5CCC[C@H]5C(=O)O)cc4)nc3)cc2)CC1 [Compound 1128] | > 6.10
CC(C)(C)c1ccc(C(=O)N[C@@H](Cc2ccc(-c3ncc(-c4ccc([C@H]5CC[C@H](C)CC5)cc4)cn3)cc2)C(=O)N2CC(C(=O)O)C2)s1 [Compound 1176] | > 6.10
CCCCCCCOc1ccc(-c2cnc(-c3ccc(C[C@H](NC(=O)c4ccc(C(C)(C)C)cc4)C(=O)N[C@@H](CN)C(=O)O)cc3)nc2)cc1 [Compound 452] | 5.30 to 5.60
CCCCCCCOc1ccc(-c2cnc(-c3ccc(C[C@H](NC(=O)c4ccc(C(C)(C)C)cc4)C(=O)N[C@@H](CC(=O)O)C(=O)N(C)CCN(C)C)cc3)nc2)cc1 [Compound 505] | 5.60 to 6.10

* * *

TARGET_SYSTEM: GLP-1R (Homo sapiens, UniProt P43220)
Construct: host or cells: GLP-1R CRE-bla CHO-K1 cells
Sequence (P43220 24-463): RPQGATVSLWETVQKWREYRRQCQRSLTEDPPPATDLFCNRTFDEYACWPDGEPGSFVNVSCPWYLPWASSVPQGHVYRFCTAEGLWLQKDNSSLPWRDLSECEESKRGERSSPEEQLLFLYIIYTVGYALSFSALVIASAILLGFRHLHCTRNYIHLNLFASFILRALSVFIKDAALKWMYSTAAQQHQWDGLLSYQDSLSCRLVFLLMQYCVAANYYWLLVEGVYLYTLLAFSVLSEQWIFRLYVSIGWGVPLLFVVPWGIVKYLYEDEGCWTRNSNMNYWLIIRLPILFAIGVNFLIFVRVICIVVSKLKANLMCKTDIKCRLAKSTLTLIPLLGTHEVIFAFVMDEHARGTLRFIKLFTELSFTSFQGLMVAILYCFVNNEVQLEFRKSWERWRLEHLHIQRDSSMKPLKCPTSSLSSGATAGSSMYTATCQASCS
Sequence (P01275 100-127 partner limits assumed): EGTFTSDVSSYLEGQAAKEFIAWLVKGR
ASSAY_PROTOCOL: EC20 GLP-1(9-36) PAM cAMP assay: dose response of compound in the presence of fixed concentration of GLP-1(9-36)
Type: cell-based
EXPERIMENTAL_PARAMETERS: dose response of compound in presence of fixed concentration of GLP-1(9-36), GLP-1R CRE-bla CHO-K1 cells, read-out: EC20 GLP-1(9-36) PAM EC50
Description: EC20 GLP-1(9-36) PAM cAMP Assay: Dose Response of Compound in the Presence of Fixed Concentration of GLP-1 (9-36). […]
pEC50: −log10 of the molar value.
PROPERTY_MEASURED: pEC50

COMPOUND | EXPERIMENTAL_RESULT
CCCCOCCOc1ccc(-c2cnc(-c3ccc(C[C@H](NC(=O)c4ccc(C(C)(C)C)cc4)C(=O)NCCC(=O)O)cc3)nc2)cc1 | 5.30 to 5.60
CCCCCCCc1noc(-c2cnc(-c3ccc(C[C@H](NC(=O)c4ccc(C(C)(C)C)cc4)C(=O)NCCC(=O)O)cc3)nc2)n1 | 5.00 to 5.30
CCCCCCCOc1ccc(-c2cnc(-c3ccc(C[C@H](NC(=O)c4ccc(CCC)cc4)C(=O)N4CC(C(=O)O)C4)cc3)nc2)cc1 | 5.60 to 6.10
CCCCCCCOc1ccc(-c2cnc(-c3ccc(C[C@H](NC(=O)c4ccc(C(C)(C)C)s4)C(=O)N[C@@H](CC(=O)N[C@@H](CO)C(=O)O)C(=O)O)cc3)nc2)cc1 | > 6.10
CC(C)CCCOc1ccc(-c2cnc(-c3ccc(C[C@H](NC(=O)c4ccc(C(C)(C)C)s4)C(=O)N[C@H](C)C(=O)O)cc3)nc2)cc1 | 5.60 to 6.10
CCCCCCCOc1ccc(-c2cnc(-c3ccc(C[C@H](NC(=O)c4ccc(C(C)(C)C)cc4)C(=O)NCC(C(=O)O)c4ccccc4)cc3)nc2)cc1 (stereo partly drawn) | > 6.10
